Test: Pharmacokinetic test in rats (IV and PO)
Assay type: in vivo, male SD rats
Conditions: male, SD, rat, plasma; PO 10 mg/kg vs IV 1 mg/kg; read-out: F (bioavailability)
quantity_measured: bioavailability
# output: numeric value plus its unit

Recorded result, CC(C)C[C@H](NC(=O)Cn1nc(-c2cccc(OCCN3CCN(c4ccccc4)CC3)c2)cc1-c1ccccc1)B(O)O.Cl [Compound 39] , bioavailability: 2.42%

---

Test system: colorectal cancer cell line HCT116
Test: CellTiter-Glo tumor cell proliferation, HCT116
Format: cell-based, human
Conditions: CellTiter-Glo, 72 h
quantity_measured: IC50 (nM)
Please respond with the number in nM and leave the unit unwritten.

Value of IC50 reported for the molecule CC(C)C[C@H](NC(=O)Cn1nc(-c2cccc(OS(=O)(=O)c3cccc(C(F)(F)F)c3)c2)cc1-c1ccccc1)B(O)O [Compound 28] is 3410

Query Cc1cc(-c2cccc(NS(=O)(=O)c3cccc(C(F)(F)F)c3)c2)nn1CC(=O)N[C@@H](CC(C)C)B(O)O [Compound 26] yields IC50 of 1410

---

Test system: HCT116
Assay: MTT antitumor spectrum, HCT116
Assay type: cell-based
Conditions: Homo sapiens, HCT-116, 72 h
quantity_measured: pIC50
Recall that pIC50 is obtained by taking minus log10 of the concentration measured in molar.

Kindly note: HCT116, CC(C)C[C@H](NC(=O)Cn1nc(-c2cccc(OCCN3CCOCC3)c2)cc1-c1ccccc1)B(O)O.Cl [Compound 30, hydrochloride] , pIC50 value reported: 6.20

---

Assay: Pharmacokinetic test in rats (IV and PO)
Type: in vivo, male SD rats
Conditions: male, SD, rat; PO 10 mg/kg, single, plasma
quantity_measured: AUC(0-inf) (ng·h/mL)
Report the value in ng·h/mL with no unit label.

// "CC(C)C[C@H](NC(=O)Cn1nc(-c2cccc(OCCN3CCN(c4ccccc4)CC3)c2)cc1-c1ccccc1)B(O)O.Cl" : AUC(0-inf) value = 191

---

Assay: Pharmacokinetic test in rats (IV and PO)
Assay type: in vivo, male SD rats
Settings: male, SD, rat; PO 10 mg/kg, single, plasma
quantity_measured: AUC(0-t) (ng·h/mL)
Give the value, in units of ng·h/mL, as a plain number.

The recorded AUC(0-t) for entry "CC(C)C[C@H](NC(=O)Cn1nc(-c2cccc(OCCN3CCN(c4ccccc4)CC3)c2)cc1-c1ccccc1)B(O)O.Cl" equals 186

---

System: colorectal cancer cell line HCT116
Experiment: CellTiter-Glo tumor cell proliferation, HCT116
Format: cell-based, human
Conditions: Homo sapiens, HCT-116; 1 μM, 72 h; read-out: Inhibition rate HCT116 (%)
Method: The effect of compounds on tumor cell proliferation was detected by CellTiter-Glo method. […] After 72 h incubation in the incubator, 20 μL of CellTiter-Glo was added into each well, and the relative luminescence unit (RLU) was measured with Multimode Microplate Reader Varioskan Flash (Thermo Scientific, USA) after placed at 37° C. for 20 min, and compared with the RLU of the control group. […]
Class definitions on inhibition at 1 µM: lo: < 5%; med: ≥ 5% and < 8%; hi: ≥ 8%

QUERY: Please indicate the class for "CC(C)C[C@H](NC(=O)Cn1nc(-c2ccccc2OS(=O)(=O)c2cccc(Cl)c2)cc1-c1ccccc1)B(O)O" based on its inhibition at 1 µM.
RESULT: hi

QUERY: Class label required: "CC(C)C[C@H](NC(=O)Cn1nc(-c2ccccc2OS(=O)(=O)c2ccccc2C(F)(F)F)cc1-c1ccccc1)B(O)O"
RESULT: lo

QUERY: Which inhibition at 1 µM band matches "CC(C)C[C@H](NC(=O)Cn1nc(-c2ccccc2OS(=O)(=O)c2cc(Cl)ccc2Cl)cc1-c1ccccc1)B(O)O" ?
RESULT: lo

QUERY: Which inhibition at 1 µM band matches "CC(C)C[C@H](NC(=O)Cn1nc(-c2ccccc2OS(=O)(=O)c2cccc(C(F)(F)F)c2)cc1-c1ccc(F)cc1)B(O)O" ?
RESULT: hi

QUERY: Would you mind sorting "Cc1ccc(-c2cc(-c3ccccc3OS(=O)(=O)c3cccc(C(F)(F)F)c3)nn2CC(=O)N[C@H](B(O)O)C(C)C)cc1" into the appropriate category?
RESULT: hi

QUERY: Classify this compound: "CC(C)C[C@H](NC(=O)Cn1nc(-c2ccccc2OS(=O)(=O)c2ccc(C(F)(F)F)cc2)cc1-c1ccccc1)B(O)O"
RESULT: lo

QUERY: Kindly identify the class of "CC(C)C[C@H](NC(=O)Cn1nc(-c2ccc(OS(=O)(=O)c3cccc(C(F)(F)F)c3)cc2)cc1-c1ccccc1)B(O)O" .
RESULT: hi

QUERY: Which bin should I file "CC(C)C[C@H](NC(=O)Cn1nc(-c2ccccc2OS(=O)(=O)c2cccc(C(F)(F)F)c2)cc1-c1ccc(Cl)cc1)B(O)O" under?
RESULT: hi

QUERY: Into which bin does this compound go? "CC(C)C[C@H](NC(=O)Cn1nc(-c2ccccc2OS(=O)(=O)c2ccccn2)cc1-c1ccccc1)B(O)O"
RESULT: med

QUERY: Form field 'band' for "CC(C)C[C@H](NC(=O)Cn1nc(-c2ccccc2OS(=O)(=O)c2cccc(C(F)(F)F)c2)cc1-c1cccs1)B(O)O"
RESULT: med

QUERY: Which of the defined bands does the recorded inhibition at 1 µM of "CC(C)C[C@H](NC(=O)Cn1nc(-c2ccccc2OS(=O)(=O)c2cccc(C(F)(F)F)c2)cc1-c1ccc(C#N)cc1)B(O)O" sit within?
RESULT: med
